# run description: PhoP-dependent GFP reporter repression – Salmonella Typhimurium, primary screen (AID 1863);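 further: 0% = low Mg2+ inducing control and 100% = high Mg2+ repressing control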
# recorded conditions: S. Typhimurium PhoP-regulated promoter GFP reporter, 4 h; at 50 µM; active compounds read high
Hit rate of the full screen: of about 300,000 compounds, about 480 (0.16%) were called active. Only a sample is shown. Measured potencies and affinities stand elsewhere.
Could you please report measured inhibition for the items listed next?

inhibition for `CCOc1cccc(C(=O)NNC(=O)CCC(=O)O)c1` is 4.57% (inactive)

For this compound ( `CCOC(=O)c1cn(CC)c2cc(N3CCN(C)CC3)c(F)cc2c1=O` ), measured inhibition is 0.76% (inactive)

The measured inhibition associated with `CCn1c(CNC(=O)C2CCCCC2)cc2cc(C)ccc21` reads -0.55% (inactive)

// sample `CCn1cc(C(=O)O)c(=O)c2cnc(N3CCN(C(=S)Nc4ccccc4)CC3)nc21` , its inhibition was 5.11% (inactive)

Value of measured inhibition for the entry `O=S1(=O)NC(=NCCc2ccccn2)c2ccccc21` : 10.3% (inactive)

Per the records, this compound ( `CO[C@H]1C=CO[C@@]2(C)Oc3c(C)c(O)c4c(O)c(c(C=NN5CCN(C6CCCC6)CC5)c(O)c4c3C2=O)NC(=O)C(C)=CC=C[C@H](C)[C@H](O)[C@@H](C)[C@@H](O)[C@@H](C)[C@H](OC(C)=O)[C@@H]1C` ) has inhibition equal to -1.76% (inactive)

Note to self: inhibition recorded for `CCCCCCn1cc(C(=O)O)c(=O)c2cc(F)c(N3CCN(C(=O)OCC)CC3)cc21` was 5.63% (inactive)

Measured inhibition of `CCCOc1ccc(C(=O)NCCC(=O)NCCCC(=O)O)cc1` : 8.01% (inactive)

# compound `CCCCCCCCC(=O)N1CCN(c2cc3c(cc2F)c(=O)c(C(=O)O)cn3CC)CC1` ; its inhibition = 1.94% (inactive)

----------
Would you kindly list inhibition for each of these molecules?
# run description: PhoP-dependent GFP reporter repression – Salmonella Typhimurium, primary screen (AID 1863);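 further: 0% = low Mg2+ inducing control and 100% = high Mg2+ repressing control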
# recorded conditions: S. Typhimurium PhoP-regulated promoter GFP reporter, 4 h; at 50 µM; active compounds read high
The campaign covered roughly 300,000 compounds. About 480 (0.16%) were called active. Not all results are given here. Entries with a potency or affinity are not part of this list.
The figure you give is taken to be in %; do not add the unit.

Record `CC(C)CN(C(=O)COC(=O)CCCc1nc2ccccc2s1)c1c(N)n(Cc2ccccc2)c(=O)[nH]c1=O` , field inhibition: -9.27

Record `O=S(=O)(N/N=C/c1ccc(N2CCOCC2)cc1)c1ccc(Br)cc1` . Reported inhibition: -5.5

`O=C(Nc1ccc2ncccc2c1)c1cc(Cl)ccc1Cl` has a reported inhibition of 0.12

Looking up O=C(N/N=C1\CC2CC=CC12)c1ccccc1Cl (stereo unspecified) , I found its inhibition recorded as -4.57

Short answer for `CC(/C=C/c1ccccc1F)=N\NC(=O)c1cccc(F)c1` : inhibition was 3.59

# inhibition (molecule: COCC1=C(C(=O)OC(C)OC(=O)OC(C)C)N2C(=O)[C@@H](NC(=O)/C(=N\OC)c3csc(N)n3)[C@H]2SC1 (stereo partly specified) ) is -12.3

----------
# run description: PhoP-dependent GFP reporter repression – Salmonella Typhimurium, primary screen (AID 1863);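 further: 0% = low Mg2+ inducing control and 100% = high Mg2+ repressing control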
# recorded conditions: S. Typhimurium PhoP-regulated promoter GFP reporter, 4 h; at 50 µM; active compounds read high
Among all 300,000 compounds or so, about 480 (0.16%) were called active. Not all results are given here. Entries with a potency or affinity are not part of this list.
reported endpoint: inhibition

Given item CC(C)Oc1ccc(C(=O)OC(C)C(=O)Nc2nc(-c3cccc([N+](=O)[O-])c3)cs2)cc1 (stereo not given) , the value recorded as its inhibition is 3.69% (inactive)

What the record says about `Cc1nc(N)nc(Cl)c1Cc1ccc(Cl)cc1` : inhibition is 2.03% (inactive)

Notebook: CCCCC(CC)CNC(=O)C1CC=CCC1C(=O)O (stereo not given) , inhibition read as -4.78% (inactive)

The compound `CC(=O)C[C@H]1c2cc(C(F)(F)F)ccc2S(=O)(=O)N1c1ccc(N(C)C)cc1` showed inhibition equal to -9.83% (inactive)

The compound `O=C(c1cc2c(=O)oc3ccccc3c2s1)N1CCOCC1` showed inhibition equal to 2% (inactive)

Noted for `Cc1cc(-n2cc(Br)c(=O)[nH]c2=O)nc(-c2ccccc2)n1` : its inhibition reads -4.05% (inactive)

Item: CC(=O)NC(c1ccc(C)cc1)c1cc(Cl)c2cccnc2c1O (stereo not given) | inhibition: -1.88% (inactive)

Record `COc1ccc(S(=O)(=O)N2CCC(NC(=O)C3CCCCC3)CC2)cc1` . Reported inhibition: 4.35% (inactive)

Lab note: COc1ccc(S(=O)(=O)N2CC(C)N(C(=O)N(C)C)C2C)cc1 (stereo not given) gave inhibition of -6.03% (inactive)

Data point: CC(Oc1ccccc1)C(=O)N=C1SC2CS(=O)(=O)CC2N1c1ccc(F)cc1 (stereo not given) ; inhibition = -3.91% (inactive)

For `COc1ccc(S(=O)(=O)N2CCC(C(=O)Nc3c(F)cccc3F)CC2)cc1` the compound record lists inhibition as 14.7% (inactive)

inhibition reading for `CCCCn1c2c(c(=N)c3c1CCC3)CCC2` : -14.8% (inactive)

Note to self: inhibition recorded for CCCCCCCNC(=O)C1(CC2CC(c3ccc(Cl)cc3)=NO2)CCN(C(=O)C2(C)CC2)CC1 (stereo not given) was -5.4% (inactive)

The value of inhibition measured for the compound `O=C(Cn1cc(SCc2cccc(Cl)c2)c2ccccc21)N1CCOCC1` turned out to be -8.83% (inactive)

Per the records, this compound ( CCCCCCCNC(=O)C1(CC2CC(c3ccccc3)=NO2)CCNCC1 (stereo not given) ) has inhibition equal to 0.18% (inactive)

For record `Cc1csc(C(=O)O)c1NC(=O)c1c(Cl)cccc1Cl` the listed inhibition is -3.3% (inactive)

// `CCN1C(=O)CSc2ccc(C(=O)NCc3ccc(OC)cc3)cc21` : inhibition value = -1.69% (inactive)

# inhibition (compound: O=C(c1cc(F)ccc1F)C1CCCN(C(=O)c2ccco2)C1 (stereo not given) ) is -3.85% (inactive)

What the record says about `O=C1C(O)=C(O)C(=O)c2ccccc21` : inhibition is 9.48% (inactive)

Reported inhibition ( `O=C1Nc2ccccc2C1=O` ) = 6.44% (inactive)

Measured inhibition of `CC(C)c1cc(=O)n2[nH]c(SCc3ccccc3Cl)nc2n1` : -7.54% (inactive)

Reported inhibition ( Nc1cnn(C2OC(CO)C(O)C2O)c(=O)n1 (stereo not given) ) = -3.56% (inactive)

The compound `CS(=O)(=O)N(Cc1ccc(C(=O)NCCSCc2ccco2)cc1)c1ccccc1` showed inhibition equal to -4.62% (inactive)

// field: inhibition; key: OC(c1cc(C(F)(F)F)nc2c(C(F)(F)F)cccc12)C1CCCCN1 (stereo not given) ; value = -7.43% (inactive)

Briefly, inhibition measured for `O[C@@H](c1cc(C(F)(F)F)nc2c(C(F)(F)F)cccc12)[C@H]1CCCCN1` : 9.26% (inactive)

Lookup result for `Cc1nn(-c2ccccc2)c(N2CCCC2)c1/C=N/NC(=O)c1ccccc1O` ; measured inhibition: -4.47% (inactive)

Notebook: CC(=O)NC(c1ccccc1)c1cc(Cl)c2cccnc2c1O (stereo not given) , inhibition read as 18.9% (inactive)

Entry COc1ccccc1-c1noc(-c2ccccc2C(=O)NCC2CCCO2)n1 (stereo not given) , inhibition reported as -3.19% (inactive)

// field: inhibition; key: `C=CCNc1nc(Cl)nc(Nc2ccc([N+](=O)[O-])cc2)n1` ; value = 13.8% (inactive)

Summary for this compound, `CCCn1c2c(c(=N)c3c1CCC3)CCCC2` : inhibition is -0.71% (inactive)

// inhibition value for COc1ccc(S(=O)(=O)N(C)c2ccc(C(=O)NCC3CCCO3)cc2)cc1 (stereo not given) : 15.5% (inactive)

Briefly, inhibition measured for `COCCN(C(=O)COC(=O)c1ccc2c(c1)OCCO2)c1c(N)n(Cc2ccccc2)c(=O)[nH]c1=O` : 0.22% (inactive)

inhibition in this record for `O=C(Nc1ccc(CN2CCOCC2)cc1)c1cccc(-c2cc3ccccc3oc2=O)c1` : -5.22% (inactive)

inhibition in this record for Oc1c(C(c2ccccn2)N2CCC(Cc3ccccc3)CC2)cc(Cl)c2cccnc12 (stereo not given) : -3.77% (inactive)

Short answer for CCCCCCCNC(=O)C1(CC2CC(c3cccc(Br)c3)=NO2)CCN(C(=O)C2CCCC2)CC1 (stereo not given) : inhibition was 12.9% (inactive)

The reported value for O=C(NC(c1ccccc1)c1cc(Cl)c2cccnc2c1O)c1cccnc1 (stereo not given) in terms of inhibition is -10.8% (inactive)

Measured inhibition of Cn1c2c(c(=O)n(C)c1=O)C(c1ccc(Br)cc1)Nc1ccccc1O2 (stereo not given) : -10.1% (inactive)

The compound identified as COc1ccc(C(CNS(=O)(=O)c2ccc(F)cc2)N2CCN(C)CC2)cc1 (stereo not given) registered its inhibition at 3.53% (inactive)

Data point: `CCn1c2c(c(=N)c3c1CCC3)CCCC2` ; inhibition = -3.7% (inactive)

The reported inhibition of the compound `Cc1nc2ccc(Cl)cc2nc1C` was -3.83% (inactive)

Entry under test: `O=S1(=O)CCOC[C@H](CC2CCCCC2)N1Cc1cccc(C(F)(F)F)c1` . Its inhibition was 9.84% (inactive)

Lab book: inhibition of `O=C(NCCCn1ccnc1)c1ccc(Br)cc1` noted as 12.6% (inactive)

Entry under test: `Cc1cccc(C)c1NC(=O)CNCC(=O)Nc1c(C)cccc1C` . Its inhibition was 0.56% (inactive)

Lab note: `CCCCCn1c(CCNC(=O)c2cccs2)nc2ccccc21` gave inhibition of 11.2% (inactive)

Entry under test: `COc1c(C(=O)Nc2ccc(CN3CCOCC3)cc2)cc2ccccc2c1Br` . Its inhibition was 2.69% (inactive)
